Recorded pIC50 for the following compounds
target: recombinant human GR (Homo sapiens, UniProt P04150)
Sequence (P04150 1-777): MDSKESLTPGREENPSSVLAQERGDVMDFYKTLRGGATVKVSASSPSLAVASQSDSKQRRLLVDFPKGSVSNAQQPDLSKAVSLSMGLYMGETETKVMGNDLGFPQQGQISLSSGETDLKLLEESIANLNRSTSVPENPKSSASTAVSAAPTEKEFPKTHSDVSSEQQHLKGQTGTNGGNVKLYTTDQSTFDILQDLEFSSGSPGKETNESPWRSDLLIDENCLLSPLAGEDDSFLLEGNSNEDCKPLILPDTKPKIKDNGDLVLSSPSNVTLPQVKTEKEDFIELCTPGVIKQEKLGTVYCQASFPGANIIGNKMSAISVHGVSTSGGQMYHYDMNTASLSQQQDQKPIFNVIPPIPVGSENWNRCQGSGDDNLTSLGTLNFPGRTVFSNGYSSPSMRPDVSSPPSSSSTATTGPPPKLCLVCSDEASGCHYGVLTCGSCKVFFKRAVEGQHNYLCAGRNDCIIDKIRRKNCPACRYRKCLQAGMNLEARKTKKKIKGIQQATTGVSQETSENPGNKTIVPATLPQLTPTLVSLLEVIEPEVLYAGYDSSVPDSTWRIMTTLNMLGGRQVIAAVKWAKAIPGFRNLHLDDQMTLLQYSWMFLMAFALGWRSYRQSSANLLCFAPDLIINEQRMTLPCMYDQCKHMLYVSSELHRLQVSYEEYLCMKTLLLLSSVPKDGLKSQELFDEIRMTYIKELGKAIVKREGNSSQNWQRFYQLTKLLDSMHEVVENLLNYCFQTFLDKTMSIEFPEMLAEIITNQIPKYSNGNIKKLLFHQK
experiment: Human Glucocorticoid Receptor (GR) Assay, fluorescence polarization competition with GS Red tracer
measurement_context: 2 hours at room temperature, 100% control 10 μM Dexamethasone, XLfit model 205, read-out: Inhibition of GR binding, IC50
Text: Human Glucocorticoid Receptor (GR) Assay The assay is based on a commercial kit from Panvera/Invitrogen (Part number P2893). The assay technology is fluorescence polarization. […] The plate was read in an Analyst plate reader (LJL Biosystems/Molecular Devices Corporation) or other similar plate reader capable of recording fluorescence polarization (excitation wavelength 530 nm, emission wavelength 590 nm and a dichroic mirror at 561 nm).
Remember, pIC50 is on a log scale: it is -log10 of the molar concentration.

Check out these entries, answers already filled in.
CCC(=O)O[C@]1(C(=O)SCCO)CC[C@H]2[C@@H]3CCC4=Cc5c(cnn5-c5cccc(C(=O)N6CCC[C@@H]6C(N)=O)c5)C[C@]4(C)[C@H]3[C@@H](O)C[C@@]21C = 8.20
COCC(=O)O[C@]1(C(=O)SC)CC[C@H]2[C@@H]3CCC4=Cc5c(cnn5-c5cccc(C(=O)N6CCC[C@@H]6C(N)=O)c5)C[C@]4(C)[C@@]3(F)[C@@H](O)C[C@@]21C = 8.07
COCCNC(=O)c1cccc(-n2ncc3c2C=C2CC[C@@H]4[C@H]([C@@H](O)C[C@@]5(C)[C@H]4CC[C@]5(OC(=O)C4CC4)C(=O)SCC#N)[C@@]2(C)C3)c1 = 9.04
CCC(=O)O[C@]1(C(=O)SCF)CC[C@H]2[C@@H]3CCC4=Cc5c(cnn5-c5cccc(C(=O)N6CCC[C@@H]6C(N)=O)c5)C[C@]4(C)[C@H]3[C@@H](O)C[C@@]21C = 8.60

Then there is this compound:
Under recombinant human GR (Homo sapiens, UniProt P04150): pIC50 value of CCC(=O)O[C@]1(C(=O)SCF)CC[C@H]2[C@@H]3CCC4=Cc5c(cnn5-c5cccc(C(=O)NCC(N)=O)c5)C[C@]4(C)[C@H]3[C@@H](O)C[C@@]21C ? 8.85
